# Test system: 143B
# protocol: Sensitivity test: cell viability (Cell Counting Kit-8) after anticancer agent, RNA-transfected cells
# Format: cell-based, Human
# measurement-parameters: 143B cells, miR-100 introduced; MTX 72 hours, DOX and CDDP 48 hours
measure: IC50
Quick note: unit goes after the number.

Name the reported IC50 value associated with the molecule [NH2][Pt]([NH2])([Cl])[Cl] [CDDP, Cisplatin] 14.5 µM

* * *

# System: 143B
# protocol: Sensitivity test: cell viability (Cell Counting Kit-8) after anticancer agent, RNA-transfected cells
# Type: cell-based, Human
# measurement-parameters: 143B cells, miR-125b introduced; MTX 72 hours, DOX and CDDP 48 hours
measure: pIC50
Expect pIC50 as a plain number equal to -log10 of the molar concentration.

Name the reported pIC50 value associated with the compound [NH2][Pt]([NH2])([Cl])[Cl] [CDDP, Cisplatin] 4.85
